Assay Target: T1, 4H967-bA
T1 chain: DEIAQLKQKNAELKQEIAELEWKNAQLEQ
Method: two-hybrid library CCNG1;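 also: natural log of median RNA to DNA barcode read ratio; higher means stronger binding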
Readout Label: interaction score
Just the number.

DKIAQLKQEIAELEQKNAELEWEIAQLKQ [4H2610-bA]    -1.02
DKNAQLEQEIAELKQKNAELEWKIAQLEQ [4H3189-bA]    -1.1
DEIAQLKQEIAELKQENAELKWKNAQLEQ [4H607-bA]    -1.29

**Query** Name the recorded interaction score of the binder listed here: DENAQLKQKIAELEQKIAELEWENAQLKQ [4H1828-bA]
**Result** -0.0426

**Query** Name the recorded interaction score of the binder listed here: DEIAQLEQEIAELKQEIAELEWKNAQLKQ [4H72-bA]
**Result** -0.0446

**Query** Name the recorded interaction score of the binder listed here: DKNAQLKQKNAELEQKIAELEWEIAQLEQ [4H4001-bA]
**Result** -1.03

**Query** Name the recorded interaction score of the binder listed here: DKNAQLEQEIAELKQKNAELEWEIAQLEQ [4H3185-bA]
**Result** -0.96
